These entries and their values trace back to patent US8802694B2.

Target: Rat α4β2 (Rattus norvegicus, UniProt P09483+P12390)
Construct: Rat cortices were obtained from Analytical Biological Services; tissue Analytical Biological Services, Incorporated (ABS, Wilmington, Del.); host or cells: rat cortex (female Sprague-Dawley)
Assay: Competition binding to rat α4β2 receptors in rat cortical membranes
Conditions: Rat α4β2 Ki, rat cortex membranes
Method: Preparation of membranes from rat tissues. Rat cortices were obtained from Analytical Biological Services, Incorporated (ABS, Wilmington, Del.). Tissues were dissected from female Sprague-Dawley rats, frozen and shipped on dry ice. […] Protein concentrations were determined using the Pierce BCA Protein Assay kit (Pierce Biotechnology, Rockford, Ill.), with bovine serum albumin as the standard. […] Binding data analysis. Binding data were expressed as percent total control binding. […]
observable: pKi
Numbers only, as −log10 of the molar value.

Example entries begin here.
molecule	assay-result
O=C(OCCF)N1CC2CC(C1)N2	7.28
CC1CC(C(=O)N2C3CNCC2C3)C1 (centres unmarked)	7.24
O=C(CC1CCC1)N1CC2CC(C1)N2	7.47
C[C@@H]1C(C(=O)N2CC3CC(C2)N3)[C@@H]1C (some centres unmarked)	7.52
O=C(CC1C=CCC1)N1CC2CC(C1)N2 (centres unmarked)	7.47

Provide each entry's pKi from the list below.
1. O=C(CC(F)(F)F)N1CC2CC(C1)N2
2. O=C(NCc1ccc(Cl)c(Cl)c1)N1CC2CC(C1)N2
3. CC(C)CC(=O)N1CC2CC(C1)N2

1. 7.60
2. 7.15
3. 7.15

For each listed entry, give its pKi.
1. Cc1cc(C(=O)N2C3CNCC2C3)no1
2. O=C(C1CC1(F)F)N1CC2CC(C1)N2 (centres unmarked)
3. C/C=C/CCC(=O)N1C2CNCC1C2

1: 7.30; 2: 8.06; 3: 7.82

// for each molecule below, give its pKi
1. O=C(C1CC(F)(F)C1)N1C2CNCC1C2
2. O=C(NCc1ccc(Cl)cc1Cl)N1CC2CC(C1)N2
3. O=C(C1CCCC1)N1CC2CC(C1)N2
4. O=C(CSc1ccc(Cl)c(Cl)c1)N1CC2CC(C1)N2
5. CC(C)CC(=O)N1C2CNCC1C2
6. O=C(c1ccc(Cl)o1)N1C2CNCC1C2
7. O=C([C@H]1C[C@H]1F)N1CC2CC(C1)N2 [drawing 163]
8. O=C(C1CC=CC1)N1CC2CC(C1)N2

7.80
7.62
7.11
7.80
7.23
7.36
9.28
6.59

// each listed molecule needs a value for pKi
1. O=C(C1CC1)N1CC2CC(C1)N2
2. O=C(C1CCC1)N1C2CNCC1C2
3. O=C(c1cnco1)N1C2CNCC1C2
4. O=C(CSc1ccc(O)cc1)N1CC2CC(C1)N2

[8.64, 7.59, 7.77, 8.07]

Hey, quick one: what's pKi for each of these?
1. CC1CC1C(=O)N1CC2CC(C1)N2 (centres unmarked)
2. C[C@@H]1C[C@H]1C(=O)N1CC2CC(C1)N2
3. CC1CC1C(=O)N1C2CNCC1C2 (centres unmarked)
4. CC1(C)CC1C(=O)N1CC2CC(C1)N2 (centres unmarked)
5. O=C(CC1CCC1)N1C2CNCC1C2
6. O=C(CCC(F)(F)F)N1C2CNCC1C2

1. 8.74
2. 10.10
3. 7.47
4. 8.17
5. 7.52
6. 7.14
